The reported numbers originate from paper PMC10397247.

Target: T1, 4H968-bA
T1 chain: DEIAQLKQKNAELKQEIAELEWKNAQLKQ
Test: two-hybrid library CCNG1;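 also: natural log of median RNA to DNA barcode read ratio; higher means stronger binding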
QUANTITY NAME: interaction score

> print(dat)
                                     binder  result
1  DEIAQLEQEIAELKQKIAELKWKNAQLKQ [4H112-bA]   0.422
2  DEIAQLKQEIAELEQKNAELKWKNAQLEQ [4H575-bA]  -0.872
3  DEIAQLKQKNAELEQKNAELKWEIAQLEQ [4H953-bA]   -1.33
4  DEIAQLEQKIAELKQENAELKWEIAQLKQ [4H346-bA]  -0.648

Parameter requested: interaction score. Apply to each item below.
1. DEIAQLKQKNAELEQENAELEWKIAQLKQ [4H918-bA]
2. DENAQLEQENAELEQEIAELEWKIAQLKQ [4H1158-bA]
3. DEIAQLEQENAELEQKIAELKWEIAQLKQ [4H170-bA]

Result:
[-0.293, 0.0766, 2.27]
